# Target: human full length SYK (Homo sapiens (Human), UniProt P43405)
Below, each entry is listed alongside its reported pIC50.
// pIC50 is dimensionless: -log10 of concentration (M)

# input Query: pIC50; subject: O=C(Nc1cc2ccccc2cc1OC1CCC(O)CC1)c1cnn2cccnc12 (stereo not shown)
# output 6.20

# input Check NC(=O)C1CCN(c2ccc(Cl)cc2NC(=O)c2cnn3cccnc23)CC1 too.
# output 6.30

# input Check O=C(Nc1cc(Cl)ccc1OC1CCC(O)CC1)c1cnn2cccnc12 (stereo not shown) too.
# output 6.09

--- query ---
# input Query: pIC50; subject: COc1cc2ncccc2cc1NC(=O)c1csc2cc(CO)cnc12
# output 6.13

====

# Target: IRAK-4 (Homo sapiens (Human))
# Method summary: In vitro IRAK-4 kinase assay
# Type: biochemical
# Run conditions: purified recombinant IRAK-4, 50 uM ATP, 33P peptide phosphorylation
pIC50: −log10 of the molar value. Where a name gives a salt, the structure may show the parent alone.
Would you mind labelling by pIC50? At or over 7 is 1.0, under is 0.0.

Examples from the recorded data:
# input Evaluate O=C(Nc1cc(Cl)ccc1-c1ccc(CO)cc1)c1cnn2cccnc12 [Example 68] : pIC50 at minimum 7?
# output 0.0

# input Check COc1cc(C(=O)NCCCO)ccc1NC(=O)c1cnn2cccnc12 [Example 105] too.
# output 0.0

# input Check NCC1CCN(c2ccc(Cl)cc2NC(=O)c2cnn3cccnc23)CC1 [Example 31] too.
# output 1.0

# input Check COc1cc2ncccc2cc1NC(=O)c1csc2cnc(N(C)CCO)nc12 [Example 24] too.
# output 1.0

# input Check Cc1ncoc1COc1ccc(Cl)cc1NC(=O)c1csc2cncnc12 [Example 115] too.
# output 0.0

---
# input Evaluate CNCC1CCN(c2ccc(Cl)cc2NC(=O)c2csc3cncnc23)CC1 [Example 8] : pIC50 at minimum 7?
# output 1.0

# input Check NC(=O)c1cnc2c(C(=O)Nc3cc(Cl)ccc3O[C@H]3CC[C@@H](O)CC3)cnn2c1 [Example 67] too.
# output 0.0

# input Check NCC1CCN(c2cc3ncccc3cc2NC(=O)c2csc3cncnc23)CC1 [Example 14, hydrochloride] too.
# output 1.0

====

# Target: IRAK-4 (Homo sapiens (Human), UniProt Q9NWZ3)
# Sequence (Q9NWZ3 whole entry, species assumed): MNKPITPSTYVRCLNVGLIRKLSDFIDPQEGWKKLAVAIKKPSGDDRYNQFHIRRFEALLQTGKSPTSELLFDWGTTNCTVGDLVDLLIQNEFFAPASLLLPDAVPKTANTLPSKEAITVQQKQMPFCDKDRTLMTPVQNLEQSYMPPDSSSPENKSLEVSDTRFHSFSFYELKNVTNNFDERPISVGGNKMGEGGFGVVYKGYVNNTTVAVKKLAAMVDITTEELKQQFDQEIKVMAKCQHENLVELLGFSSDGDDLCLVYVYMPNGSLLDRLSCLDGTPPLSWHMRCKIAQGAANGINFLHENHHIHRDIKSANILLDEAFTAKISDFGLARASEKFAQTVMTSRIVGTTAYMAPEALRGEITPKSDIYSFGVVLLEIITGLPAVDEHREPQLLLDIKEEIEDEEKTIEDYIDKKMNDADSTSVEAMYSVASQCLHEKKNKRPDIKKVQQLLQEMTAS
# Method summary: In vitro IRAK-4 kinase assay
# Run conditions: purified recombinant IRAK-4, 50 uM ATP, 33P peptide phosphorylation
Below, each entry is listed alongside its reported pIC50.
// pIC50 is dimensionless: -log10 of concentration (M)

# input Query: pIC50; subject: CN(CCO)c1ccc(Cl)cc1NC(=O)c1cnn2cccnc12
# output 5.66

---
# input Query: pIC50; subject: O=C(Nc1cc(Cl)ccc1N1CCC(CO)C1)c1cnn2cccnc12 (centres unmarked)
# output 6.19

# input Check COc1ccc(Cl)cc1NC(=O)c1csc2cnc(NCCN)nc12 too.
# output 6.97

# input Check NC(=O)C1CCN(c2ccc(Cl)cc2NC(=O)c2cnn3cccnc23)CC1 too.
# output 7.16

# input Check COc1ccc(Cl)cc1NC(=O)c1csc2cnc(NCCCO)nc12 too.
# output 5.69

====

# Target: IRAK-4 (Homo sapiens (Human))
# Method summary: In vitro IRAK-4 kinase assay
# Run conditions: purified recombinant IRAK-4, 50 uM ATP, 33P peptide phosphorylation
Counter-ions that a name gives are not always drawn.
Below, each entry is listed alongside its reported pIC50.
// pIC50 is dimensionless: -log10 of concentration (M)

Recorded pIC50, per entry:
# input Query: pIC50; subject: COc1cc2ncccc2cc1NC(=O)c1csc2cnc(NCCO)nc12
# output 7.12

# input Check O=C(Nc1cc2cccnc2cc1OC1CCNC1)c1csc2cncnc12 (centres unmarked) [Example 88, hydrochloride] too.
# output 6.34

# input Check NCCCOc1cc2ncccc2cc1NC(=O)c1csc2cncnc12 too.
# output 6.99

---
# input Query: pIC50; subject: O=C(Nc1cc2cccnc2cc1OCCCO)c1csc2cncnc12
# output 6.88

# input Check COc1ccc(Cl)cc1NC(=O)c1csc2cncnc12 too.
# output 5.66

====

# Target: IRAK-4 (Homo sapiens (Human), UniProt Q9NWZ3)
# Method summary: In vitro IRAK-4 kinase assay
# Run conditions: purified recombinant IRAK-4, 50 uM ATP, 33P peptide phosphorylation
Below, each entry is listed alongside its reported IC50.
Give just the numeric value; µM need not be written.

Recorded IC50, per entry:
# input Query: IC50; subject: NCc1ccc(-c2ccc(Cl)cc2NC(=O)c2cnn3cccnc23)cc1 [Example 46]
# output 0.081

# input Check COc1cc2ncccc2cc1NC(=O)c1csc2cnc(N[C@H](C)CO)nc12 [Example 39] too.
# output 0.063

# input Check O=C(Nc1cccc(NCCCO)c1N1CCCCC1)c1cnn2cccnc12 [Example 144] too.
# output 2.85

# input Check NC1CCN(c2ccc(Cl)cc2NC(=O)c2cnn3cccnc23)C1 (centres unmarked) [Example 109] too.
# output 0.766

---
# input Query: IC50; subject: O=C(Nc1cc(Cl)ccc1N1CCOCC1)c1cnn2cccnc12 [Example 99]
# output 0.523

====

# Target: IRAK-4 (Homo sapiens (Human), UniProt Q9NWZ3)
# Method summary: In vitro IRAK-4 kinase assay
# Run conditions: purified recombinant IRAK-4, 50 uM ATP, 33P peptide phosphorylation
Assay endpoint: IC50
Answer format reminder: number followed by unit.

# input Query: IC50; subject: COc1ccc(Cl)cc1NC(=O)c1csc2ccc(NCCO)nc12 [Example 162]
# output 4660 nM

---
# input Query: IC50; subject: COc1cc2ccc(CO)cc2cc1NC(=O)c1cnn2cccnc12 [Example 82]
# output 358 nM

# input Check COc1cc2ncccc2cc1NC(=O)c1csc2cnc(NC3CC3)nc12 [Example 43] too.
# output 74 nM

# input Check COc1cc2cc(C)[nH]c2cc1NC(=O)c1cnn2cccnc12 [Example 72] too.
# output 255 nM

# input Check O=C(Nc1cc(Cl)ccc1OC[C@H](O)CO)c1cnn2cccnc12 [Example 163] too.
# output 4660 nM

# input Check COc1cc2ncccc2cc1NC(=O)c1csc2cnc(N(C)C(C)C)nc12 [Example 85] too.
# output 432 nM

====

Below, each entry is listed alongside its reported IC50.
# Target: IRAK-1 (Homo sapiens (Human))
# Method summary: In vitro IRAK-1 kinase assay
# Run conditions: purified recombinant IRAK-1, 50 uM ATP, 33P peptide phosphorylation
Structures can show the parent of a compound that is named as a salt.
Answer format reminder: number followed by unit.

Recorded IC50, per entry:
# input Query: IC50; subject: COc1cc2ncccc2cc1NC(=O)c1csc2cnc(NCC(O)CO)nc12 (centres unmarked)
# output 608 nM

# input Check NCC1CCN(c2cc3ncccc3cc2NC(=O)c2csc3cncnc23)CC1 [Example 14, hydrochloride] too.
# output 850 nM

# input Check O=C(Nc1cc(Cl)ccc1O[C@H]1CC[C@H](O)CC1)c1csc2cncnc12 too.
# output 600 nM

# input Check COc1cc2ncccc2cc1NC(=O)c1csc2cnc(NC3CC3)nc12 too.
# output 575 nM

---
# input Query: IC50; subject: COc1cc2ncccc2cc1NC(=O)c1csc2cnc(N(C)CCO)nc12
# output 300 nM

====

# Target: IRAK-1 (Homo sapiens (Human), UniProt P51617)
# Sequence (P51617 whole entry, species assumed): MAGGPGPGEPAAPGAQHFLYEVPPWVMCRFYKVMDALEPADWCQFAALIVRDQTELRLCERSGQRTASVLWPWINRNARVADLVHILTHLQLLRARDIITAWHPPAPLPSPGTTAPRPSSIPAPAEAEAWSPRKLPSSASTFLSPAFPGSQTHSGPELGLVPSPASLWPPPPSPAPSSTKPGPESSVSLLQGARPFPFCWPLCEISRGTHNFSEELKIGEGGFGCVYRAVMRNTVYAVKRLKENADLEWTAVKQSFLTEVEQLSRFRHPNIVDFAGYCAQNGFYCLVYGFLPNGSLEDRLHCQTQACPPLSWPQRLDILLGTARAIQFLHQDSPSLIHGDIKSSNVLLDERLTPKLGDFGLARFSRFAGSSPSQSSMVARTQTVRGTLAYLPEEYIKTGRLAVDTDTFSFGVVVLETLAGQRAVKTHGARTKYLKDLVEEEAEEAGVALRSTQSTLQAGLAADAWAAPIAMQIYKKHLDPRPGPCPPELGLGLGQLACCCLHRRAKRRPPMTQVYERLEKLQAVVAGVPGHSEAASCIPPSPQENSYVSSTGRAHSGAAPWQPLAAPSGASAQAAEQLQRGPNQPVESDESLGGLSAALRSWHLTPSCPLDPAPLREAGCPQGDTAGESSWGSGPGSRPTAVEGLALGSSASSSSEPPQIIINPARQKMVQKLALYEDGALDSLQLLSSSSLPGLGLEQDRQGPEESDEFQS
# Method summary: In vitro IRAK-1 kinase assay
# Run conditions: purified recombinant IRAK-1, 50 uM ATP, 33P peptide phosphorylation
Structures can show the parent of a compound that is named as a salt.
Assay endpoint: pIC50
// pIC50 is dimensionless: -log10 of concentration (M)

# input Query: pIC50; subject: NCC1CCN(c2ccc(Cl)cc2NC(=O)c2csc3cncnc23)CC1
# output 6.10

# input Check O=C(Nc1cc(Cl)ccc1N1CCCCC1)c1cnn2cc(O)cnc12 too.
# output 6.19

---
# input Query: pIC50; subject: CC(C)(CCO)Oc1cc2ncccc2cc1NC(=O)c1csc2cncnc12 [Example 35, hydrochloride]
# output 6.44

# input Check O=C(Nc1cc(Cl)ccc1O[C@H]1CC[C@@H](O)CC1)c1csc2cncnc12 too.
# output 6.90

# input Check COc1ccc(Cl)cc1NC(=O)c1csc2cnc(NCCN)nc12 too.
# output 6.09

====

# Target: IRAK-4 (Homo sapiens (Human), UniProt Q9NWZ3)
# Method summary: In vitro IRAK-4 kinase assay
# Run conditions: purified recombinant IRAK-4, 50 uM ATP, 33P peptide phosphorylation
Assay endpoint: IC50 (µM)
Give just the numeric value; µM need not be written.

# input Query: IC50; subject: COc1ccc(Cl)cc1NC(=O)c1csc2cccnc12
# output 3.46

--- query ---
# input Query: IC50; subject: COc1ccc(CCCO)cc1NC(=O)c1cnn2cccnc12
# output 8.36

====

# Target: IRAK-4 (Homo sapiens (Human), UniProt Q9NWZ3)
# Method summary: In vitro IRAK-4 kinase assay
# Run conditions: purified recombinant IRAK-4, 50 uM ATP, 33P peptide phosphorylation
pIC50: −log10 of the molar value.
Would you mind labelling by pIC50? At or over 6 is true (1), under is false (0).

# input Evaluate NCC1CCN(c2ccc(Cl)cc2NC(=O)c2csc3cncnc23)CC1 [Example 64] : pIC50 at minimum 6?
# output true (1)

// next entry
# input Evaluate O=C(Nc1cc(Cl)ccc1OC1CCC(O)C1)c1cnn2cccnc12 (stereo not drawn) [Example 83] : pIC50 at minimum 6?
# output true (1)
